# System: E2c (6-finger) (artificial)
# CONDITION SUMMARY: stated as Km; assay not described
MEASURE NAME: pKd
Give only the number. pKd is defined as minus log10 of concentration in molar units.

Q: Consider the sequence shown here: GGGGCCGGAGCCGCAGTG (double strand) [E2c target] What is its recorded pKd?
A: 9.30
